B1: Azoarcus group I ribozyme (parent)
chain: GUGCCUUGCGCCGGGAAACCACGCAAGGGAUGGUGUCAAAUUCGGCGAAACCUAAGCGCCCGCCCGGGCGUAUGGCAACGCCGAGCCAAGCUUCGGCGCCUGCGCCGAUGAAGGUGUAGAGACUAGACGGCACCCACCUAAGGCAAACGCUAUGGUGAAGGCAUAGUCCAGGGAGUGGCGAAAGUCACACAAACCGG

variants of: B1; assay: reverse-splicing fitness (ratio to wild type); higher = more active; in vitro selection; Mg2+ level not given
reverse-splicing fitness listing for selected variants.
Give only the figure.

Known results for variants:
Can you look up the measured reverse-splicing fitness of A111U A120C C150A C169U U176C for me?
0.0196

Can you look up the measured reverse-splicing fitness of C82G A120C A145U C150G C169G U176A for me?
0.00782

---
Can you look up the measured reverse-splicing fitness of C82G A120C C150G C169G for me?
0.00797
